These measurements were taken from PubChem BioAssay.

assay: reversal of MRP1-mediated doxorubicin resistance, pilot screen, H69AR cells, doxorubicin co-treatment (AID 601); conditions: H69AR cells, CellTiter-Glo, 72 h; compound alone cytotoxicity; at 10 µM
Measured viability by item
Parameter: viability

> print(dat)
                                    compound  test.result
 1     O=c1c2c(nc3nc(CCc4ccccc4)[nH]n13)CCC2          91%
 2  Cc1ccccc1N(C)S(=O)(=O)c1ccc2[nH]cc(C(=O)NCC3CCCO3)c(=O)c2c1 (stereo not given)        91.7%
 3             COc1cccc(C(=O)Nc2ccc(C)cc2)c1        92.3%
 4  COc1cc(OC)cc(C(=O)NCc2n[nH]c(=S)n2-c2ccccc2OC)c1        89.4%
 5  O=C1CCN(C(=O)c2ccccc2)C2CCCCC12 (stereo not given)        90.3%
 6  COCCn1nnnc1C(c1ccc(OC)cc1)N1CCN(c2ccccc2F)CC1 (stereo not given)        89.7%
 7  Cc1cc2c(=O)n(CC(=O)N3CCN(c4ccccc4)CC3)cnc2s1        96.5%
 8  Cn1c(=O)c2c(nc(SCC(=O)NCc3ccco3)n2C)n(C)c1=O        93.5%
 9  COc1cc(C2=NOC(C(=O)NCc3ccc(F)cc3)C2)cc(OC)c1OC (stereo not given)        31.6%
10              COc1ccc(OCCOC(=O)c2cccs2)cc1         109%
11         O=C(COc1ccc(F)cc1Br)N1CCc2ccccc21        75.3%
12  O=C(Nc1ccc2c(c1)OCCO2)C1CCCN1S(=O)(=O)c1cccc2cccnc12 (stereo not given)        96.8%
13     O=C(COc1ccc(Cl)cc1)Nc1nc(-c2cccs2)cs1        77.5%
14  CCCn1c2c(c(O)c(C(=O)Nc3ccc(C)cn3)c1=O)CCCC2          88%
15  COc1ccc(C(c2nnnn2C2CCCC2)N2CCN(C3CCCC3)CC2)cc1OC (stereo not given)         106%

* * *

assay: SK-BR-3 cell growth inhibitors, pilot screen, 24 h, human (AID 572); settings: SK-BR-3 viability, CellTiter-Glo luminescence, at 10 µM, stronger effect = lower value;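 note: compound exposure lasted between 18 and 24 h rather than exactly 24 h; 100% = carrier-treated control wells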
Measured viability accompanies every entry in the list below.
Parameter: viability (%)

> print(dat)
                                    compound  parameter  test.result
 1  CN1CC(=O)N(CC(=O)NCCc2ccc(F)cc2)c2ccccc2C1=O  viability           95
 2  CC(C)(C)OC(=O)N1CC(O)CC1C(=O)OCC(=O)c1ccc(Cl)cc1 (stereo not given)  viability           95
 3  CC1=CCC2C(=O)N(c3nc(C)cc(C)n3)C(=O)C2C1 (stereo not given)  viability          110
 4              O=C(OCC(=O)N1CCCCCC1)c1cccs1  viability           99
 5  O=C(NCc1ccco1)C1CCN(C(=O)c2cc3sccc3n2Cc2ccc(F)cc2)CC1  viability         94.5
 6  Cc1cc(NC(=O)c2cc3ccccc3o2)cc(C)c1OCC(=O)N1CCOCC1  viability         92.5
 7  COc1ccc2c(c1)OC(O)(C(F)F)CC2=O (stereo not given)  viability          116
 8     O=C(Nc1ccccc1)N(CCN1CCOCC1)Cc1ccccc1F  viability          106
 9    CCc1nc(N)c(C#N)c(-c2ccc(OC)c(OC)c2)c1C  viability         98.5
10  CC(=O)N1CCN(c2ccc(S(=O)(=O)N3CCCCC3)cn2)CC1  viability           97
11                           Oc1ccc2cccnc2c1  viability         94.5
12  COc1ccc(C(=O)CSc2nnc(C3CCCCC3)n2N)c(OC)c1  viability         91.5
13  Cc1ccc(-c2nnc3ccc(SCC(=O)NCc4ccco4)nn23)cc1  viability          100
14   COc1cccc(OC)c1OCCN1CCN(C(=O)c2ccco2)CC1  viability         86.5
15             CCSc1ccccc1C(=O)Nc1cccc(OC)c1  viability          110

* * *

test: SK-BR-3 cell growth inhibitors, pilot screen, 24 h, human (AID 572); settings: SK-BR-3 viability, CellTiter-Glo luminescence, at 10 µM, stronger effect = lower value;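 note: compound exposure lasted between 18 and 24 h rather than exactly 24 h; 100% = carrier-treated control wells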
Peptide text beside a SMILES is read from it. * marks the point of attachment. Boc = CC(C)(C)OC(=O)*

Molecule	viability, %
Cc1ccc(C(=O)NC2CC3CCCC(C2)N3C(=O)NC2CCCCC2)cc1 (stereo not given)	92
Cc1nnc(SCC(=O)NCCN2C(=O)CSC2=O)s1	96.5
Cn1c(SCC(=O)N2CCN(c3cccc(Cl)c3)CC2)nnc1-c1ccncc1	84
CCOc1cc(C(=O)N(C)c2ccccc2)cc(OCC)c1OCC	108
CCC(=O)Nc1c(C#N)c2nc3ccccc3nc2n1-c1ccccc1C	95
Nc1nc(C2C(=O)CCCC2=O)cs1	97.5
Cc1cc(=O)n(C)c(=O)n1CCCCCN1CCCC1	96.5
CCC(=O)/C=C1\Sc2ccc(OC)cc2N1CCO	120
CCc1nnc2n1N=C(c1ccc(-c3ccc(Cl)cc3Cl)o1)CS2	99.5
Cc1ccccc1C(=O)NC1CCN(CC(=O)Nc2nccs2)CC1	92.5
CCOC(=O)c1ccc(NC(=O)CCc2c(C)nc3ncnn3c2C)cc1	88
COc1ccc(-c2noc(CCCC(=O)O)n2)cc1	130
COc1ccc(C(=O)NCCn2ccc3ccccc32)c(OC)c1	95
Cc1ccc(C)c(-n2c(CNC(=O)c3ccco3)nnc2SCC(=O)Nc2nnc(C)s2)c1	100
CC(NC(=O)OC(C)(C)C)C(=O)N1CCCC1C(=O)NC(Cc1ccccc1)C(N)=O (stereo not drawn) (Boc-Ala-Pro-Phe-NH2; configuration not given here)	105
CCC(C)NC(=O)c1ccccc1NC(=O)C(C)N(c1ccccc1)S(C)(=O)=O (stereo not given)	93
CCOC(=O)C1=C(C)Nc2ncnn2C1c1cc(OC)ccc1OC (stereo not given)	92.5
COC(=O)c1ccccc1S(=O)(=O)N(CCCO)Cc1cc2c(C)ccc(C)c2[nH]c1=O	84.5
COc1ccc(-n2ncc3c(=O)n(CC(=O)OCc4ccccc4)cnc32)cc1	83
COCCNC(=O)CC(NS(=O)(=O)c1ccc(NC(C)=O)cc1)C(C)C (stereo not given)	97
O=C(c1ccc(Cl)c(Cl)c1)N1CCOCC1	102
COc1ccc(S(=O)(=O)N2CCCC2C(=O)Nc2ccc(C)cc2)cc1 (stereo not given)	88
COCCNS(=O)(=O)c1cc(F)ccc1OC	90
COc1ccc(C)cc1NS(=O)(=O)c1ccc(NS(=O)(=O)c2ccc(NC(C)=O)cc2)cc1	128
Cc1ccc(NC(=O)c2ccc(NS(=O)(=O)c3c(C)noc3C)cc2)cc1C	97
CC(C(=O)N1CCCCC1)n1ncn2cccc2c1=O (stereo not given)	93.5
NC(=O)c1nsnc1-c1ccccc1O	105
O=C(Nc1ccc2c(c1)OCCO2)c1ccco1	83
Cc1ccc2c(c1)NC(=O)C(CC(=O)NCCN(CC(C)C)CC(C)C)O2 (stereo not given)	88
Cc1nc2ncnn2c(N2CCC(C(=O)NC3CCCC3)CC2)c1Cc1ccccc1	88

* * *

Quick reference: differential viability (reversal) of the listed items.
assay: reversal of MRP1-mediated doxorubicin resistance, pilot screen, H69AR cells, doxorubicin co-treatment (AID 601); details: H69AR cells + 2 uM doxorubicin, CellTiter-Glo, 72 h; at 10 µM; stronger effect = higher value
Parameter: differential viability (reversal) (%)

> print(dat)
                                    compound                          parameter  test.result
 1                    O=C(NCc1ccccn1)c1cccs1  differential viability (reversal)         11.9
 2         C=CCn1c(-c2cccs2)nc2nc3ccccc3nc21  differential viability (reversal)        -18.6
 3         Cc1ccccc1NC(=O)C1CCN(c2cnccn2)CC1  differential viability (reversal)         8.59
 4           O=S(=O)(Nc1cccc2ncccc12)c1cccs1  differential viability (reversal)        0.345
 5          CC1(C)CNC(=O)c2sc(N3CCOCC3)nc2C1  differential viability (reversal)        -4.71
 6  CC(C)[C@H](NC(=O)OC(C)(C)C)c1nnc(SCc2cccc(F)c2)o1  differential viability (reversal)        -1.12
 7  CCN(Cc1nc2ccccc2c(=O)[nH]1)Cc1nc2cc(OC)c(OC)cc2c(=O)[nH]1  differential viability (reversal)        -2.33
 8       Cc1cnc(C(=O)Nc2ccc(-n3cnnn3)cc2)cn1  differential viability (reversal)         16.4
 9  CCOC(=O)N1CCN(c2nc(-c3ccc(Cl)cc3)cs2)CC1  differential viability (reversal)        -9.49
10  CCOC(=O)C(C)(C)Sc1nc2c(cnn2-c2ccc(C)cc2)c(=O)[nH]1  differential viability (reversal)        -16.5
11  CCc1nnc(NC(=O)CSc2nnc3scc(-c4ccc(C)cc4)n23)s1  differential viability (reversal)        -0.05
12  CCc1ccccc1NC(=O)C(C#N)Cc1cccnc1 (configuration not stated)  differential viability (reversal)        -1.77
